- target system: sGC enzyme (Homo sapiens, UniProt Q02108+Q02153)
- Construct: incorporated into these cells detect cGMP formed by the compounds stimulating the sGC enzyme; host or cells: HEK293 cells stably expressing GloSensor 40F cGMP biosensor
- Sequence (Q02153 1-619): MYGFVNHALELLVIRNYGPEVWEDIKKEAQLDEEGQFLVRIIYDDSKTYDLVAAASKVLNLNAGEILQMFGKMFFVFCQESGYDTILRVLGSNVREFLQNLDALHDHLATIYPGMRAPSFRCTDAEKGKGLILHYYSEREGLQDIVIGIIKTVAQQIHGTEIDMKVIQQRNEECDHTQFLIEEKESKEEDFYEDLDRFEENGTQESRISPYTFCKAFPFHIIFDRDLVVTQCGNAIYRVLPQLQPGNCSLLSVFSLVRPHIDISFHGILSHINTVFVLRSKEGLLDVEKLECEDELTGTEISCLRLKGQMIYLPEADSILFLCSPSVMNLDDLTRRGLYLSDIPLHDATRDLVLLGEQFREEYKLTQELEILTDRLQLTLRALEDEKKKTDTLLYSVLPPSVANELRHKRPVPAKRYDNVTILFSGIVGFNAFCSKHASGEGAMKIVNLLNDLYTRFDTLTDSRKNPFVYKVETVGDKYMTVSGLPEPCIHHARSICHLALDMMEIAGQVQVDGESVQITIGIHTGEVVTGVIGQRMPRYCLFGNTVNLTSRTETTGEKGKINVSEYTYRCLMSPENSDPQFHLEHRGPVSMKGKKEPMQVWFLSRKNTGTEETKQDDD
- Sequence (Q02108 1-690): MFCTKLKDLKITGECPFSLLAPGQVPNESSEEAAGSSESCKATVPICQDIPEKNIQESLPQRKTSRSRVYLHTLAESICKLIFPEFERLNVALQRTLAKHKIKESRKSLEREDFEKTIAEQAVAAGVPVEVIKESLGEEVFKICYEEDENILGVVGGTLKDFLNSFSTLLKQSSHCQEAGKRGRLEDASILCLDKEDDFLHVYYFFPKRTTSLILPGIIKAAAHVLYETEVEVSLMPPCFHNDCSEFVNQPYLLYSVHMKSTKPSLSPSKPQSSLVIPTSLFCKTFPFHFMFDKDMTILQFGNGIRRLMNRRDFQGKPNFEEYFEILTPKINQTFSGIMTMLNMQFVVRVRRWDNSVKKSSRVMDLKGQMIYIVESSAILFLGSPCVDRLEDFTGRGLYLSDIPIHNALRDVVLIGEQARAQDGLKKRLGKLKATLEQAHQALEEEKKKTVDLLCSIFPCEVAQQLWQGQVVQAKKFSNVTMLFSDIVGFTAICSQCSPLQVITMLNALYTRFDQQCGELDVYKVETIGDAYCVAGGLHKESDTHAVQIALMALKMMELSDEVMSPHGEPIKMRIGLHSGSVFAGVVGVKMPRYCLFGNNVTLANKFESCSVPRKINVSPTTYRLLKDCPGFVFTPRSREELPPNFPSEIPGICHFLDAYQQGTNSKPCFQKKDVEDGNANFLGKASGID
- experimental details: cGMP GloSensor cell-based assay, 384-well format
- experimental conditions: HEK293 cells expressing GloSensor 40F cGMP; 10 μM DETA-NONOate; normalized to 30 μM Compound Y; compounds in Table IB; read-out: Glo-sensor Abs EC50
pEC50: −log10 of the molar value.
reported endpoint: pEC50

Known results for compounds:
Notebook: FC(F)(F)c1n[nH]c(-c2nc(CCC(F)(F)C(F)(F)F)c3ccccn23)n1 [Compound I-9] , pEC50 read as 6.00 to 7.00

So for Cc1n[nH]c(-c2nc(Cc3cncnc3)c3ccccn23)n1 [Compound I-5] , the logged pEC50 turned out to be 6.00 to 7.00

get_value(item= Fc1cc(F)c2c(Cc3cncnc3)nc(-c3nc(C(F)(F)F)n[nH]3)n2c1 [Compound I-28] , readout=pEC50) returns > 7.00

Continuing:
For this compound ( Fc1ccc2c(Cc3cncnc3)nc(-c3nc(C(F)(F)F)n[nH]3)n2c1 [Compound I-12] ), measured pEC50 is > 7.00

Measured pEC50 of Fc1ccccc1Cc1nc(-c2nc(C(F)(F)F)n[nH]2)n2ccncc12 [Compound I-44] : < 6.00

Entry under test: Fc1ccccc1Cc1nc(-c2nc(C(F)(F)F)n[nH]2)n2ncccc12 [Compound I-24] . Its pEC50 was < 6.00

Form field pEC50, entry Cc1ncc(Cc2nc(-c3nc(C(F)(F)F)n[nH]3)n3cc(F)ccc23)cn1 [Compound I-23] : 6.00 to 7.00

Consider Cc1ncc(Cc2nc(-c3nc(C(F)(F)F)n[nH]3)n3cc(Cl)ccc23)cn1 [Compound I-34] . Its measured pEC50 is < 6.00

So for FC(F)(F)c1n[nH]c(-c2nc(Cc3cncnc3)c3ncccn23)n1 [Compound I-17] , the logged pEC50 turned out to be > 7.00

Recorded result, FC(F)(F)c1n[nH]c(-c2nc(Cc3cncnc3)c3cc(Cl)ccn23)n1 [Compound I-6] , pEC50: > 7.00
